These entries and their values trace back to patent US10448639B2.

Tested on: Alternaria solani
Assay: Test C: tomato early blight, preventive spray on tomato seedlings, visual disease rating
Settings: tomato early blight, preventive spray; rating marked with asterisk (different test condition, key not given)
Marks after values point to notes of the source that are not given here.
Here, each record is paired with measured Test C rating (% disease control), value marked * data.

molecule="COc1cc(F)c(-c2c(C)nn(C)c2Oc2ccc(Cl)cn2)c(F)c1 [compound 47]" result="87* %"

Prompt: I would be grateful if you could share the reported Test C rating (% disease control), value marked * for COc1cc(F)c(-c2c(C)nn(C)c2Nc2ccc(Cl)nc2)c(F)c1 [compound 34] .
Completion: 97* %

Prompt: Which Test C rating (% disease control), value marked * value is on record for Cc1nn(C)c(Oc2c(F)cc(C#N)cc2F)c1-c1c(F)cc(F)cc1F [compound 31] ?
Completion: 98* %

Prompt: Which Test C rating (% disease control), value marked * reading was recorded for the molecule Cc1nn(C)c(Nc2ccc(Cl)nc2Cl)c1-c1ccc(F)cc1Cl [compound 107] ?
Completion: 0* %

====

Parameter: Test G disease control rating. Scope: all listed entries.
Test system: Septoria tritici
Test: Test G: wheat leaf blotch, preventive spray on wheat seedlings, visual disease rating
Conditions: wheat leaf blotch, sprayed the day before inoculation; 100 = 100% disease control, 0 = no disease control relative to controls
Entry rule: numbers only, all in %.

compound="COc1ccc(Nc2c(-c3c(Cl)cccc3Cl)c(C)nn2C)cc1 [compound 333]" system_tested="Septoria tritici" readout_type="Test G disease control rating" numeric_value=100
compound="Cc1nn(C)c(Nc2ncc(Cl)cc2Cl)c1-c1ccc(F)cc1F [compound 328]" system_tested="Septoria tritici" readout_type="Test G disease control rating" numeric_value=100
compound="Cc1nn(C)c(Nc2ccc([N+](=O)[O-])cc2F)c1-c1ccc(F)cc1Cl [compound 344]" system_tested="Septoria tritici" readout_type="Test G disease control rating" numeric_value=100

Prompt: Item under review: COc1ccc(-c2c(C)nn(C)c2Oc2ccc(C#N)cc2Cl)c(Br)c1 [compound 318] . Reported Test G disease control rating?
Completion: 100

Prompt: Record request: Test G disease control rating value, item CCOc1ccc(Nc2c(-c3ccc(F)cc3Cl)c(C)nn2C)c(Cl)c1 [compound 325]
Completion: 100

Prompt: // returns reported Test G disease control rating for input Cc1nn(C)c(N(CC#N)c2c(F)cc(F)cc2F)c1-c1ccc(F)cc1Cl [compound 326]
Completion: 100

====

Tested on: Botrytis cinerea
Assay: Test B: tomato Botrytis, preventive spray on tomato seedlings, visual disease rating
Details: Botrytis cinerea, in Solanum lycopersicum, 120 h, read-out: Test B rating (% disease control)
readout_type: pest or weed control at 200 µg/mL (%)
Write the answer as a number in %, unit excluded.

Consider the reported pest or weed control at 200 µg/mL for these compounds:
test_smiles=COc1cc(F)c(Nc2c(-c3ccc(F)c(F)c3)c(C)nn2C)c(F)c1 readout_type="pest or weed control at 200 µg/mL" units_label=% numeric_value=100
test_smiles=Cc1nn(C)c(Nc2c(F)cccc2F)c1-c1ccc(F)cc1Cl readout_type="pest or weed control at 200 µg/mL" units_label=% numeric_value=100
test_smiles=Cc1nn(C)c(Oc2cc(F)c(C#N)cc2F)c1-c1ccc(F)cc1Cl readout_type="pest or weed control at 200 µg/mL" units_label=% numeric_value=99

Prompt: Data request, read-out pest or weed control at 200 µg/mL, for "Cc1nn(C)c(Oc2c(F)cc(C#N)cc2F)c1-c1ccc(F)cc1Br"
Completion: 100
